B1: CPEB3 Ribozyme (parent)
chain: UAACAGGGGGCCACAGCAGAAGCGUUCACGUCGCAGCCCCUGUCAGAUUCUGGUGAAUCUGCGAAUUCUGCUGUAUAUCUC

Variants of: B1
Assay: self-cleavage, relative activity (ratio to wild type); higher = more cleavage; in vitro, sequencing
Mark 0 for self-cleavage values under 0.6, and 1 for everything at or above.

IN: Hi, just wondering whether U69G A77U shows self-cleavage of 0.6 or higher.
OUT: 0

IN: Check if self-cleavage >= 0.6 (inclusive). Item: U1C U76A
OUT: 1

IN: Has U54G U74C a recorded self-cleavage greater than or equal to 0.6?
OUT: 1

IN: Could you verify whether the entry G9C G30C shows self-cleavage of no less than 0.6?
OUT: 0

IN: Check if self-cleavage >= 0.6 (inclusive). Item: A5G G6A
OUT: 0

IN: Has G9A U26A a recorded self-cleavage greater than or equal to 0.6?
OUT: 0

IN: // inclusive: self-cleavage at least 0.6? input: U66C C81U
OUT: 0

IN: # check: self-cleavage of C14U U67A is greater than or equal to 0.6
OUT: 0

IN: Quick check: does A47U U80G have self-cleavage greater than or equal to 0.6?
OUT: 1

IN: Dear colleague, could you confirm whether G10A U26A has self-cleavage at or above 0.6?
OUT: 0

IN: Is self-cleavage for A64U G73C at or above 0.6?
OUT: 1

IN: Check if self-cleavage >= 0.6 (inclusive). Item: U54A C79A
OUT: 1

IN: Check this variant for self-cleavage at or above 0.6: C40A U78A
OUT: 0

IN: State whether the measured self-cleavage reaches 0.6, counting equality as reaching it, for U1G A35G
OUT: 1

IN: Kindly determine if self-cleavage recorded for A20G A21C is above or exactly 0.6.
OUT: 0

IN: Item A28U A64U with self-cleavage of 0.6 or above?
OUT: 0

IN: Entry G8U A13G : is its self-cleavage no less than 0.6?
OUT: 0

IN: Decide: self-cleavage of C44U G61C >= 0.6?
OUT: 0

IN: Quick check: does A13U U60C have self-cleavage greater than or equal to 0.6?
OUT: 1

IN: State whether the measured self-cleavage reaches 0.6, counting equality as reaching it, for U58C A77U
OUT: 1

IN: Record C4U U25C ; criterion: self-cleavage no lower than 0.6. Met?
OUT: 0
